Data provenance: patent US9957214B2

- System: Friedreich's ataxia lymphoblast cell line GM15850
- Test Summary: Cytoprotection (trypan blue exclusion assay) of DEM-treated FRDA lymphocytes
- Assay type: cell-based
- Experimental Parameters: Homo sapiens, GM15850; 5 μM; DEM alone 18 ± 10% viability; read-out: Cytoprotection (cell viability, % of untreated control)
// classify: if (viability at 5 µM < 90%) y else n

Example entries and their recorded answers appear below.
# Compound, Class Label
rows = [
    ("CCCCCCCCCCCCCC1=C(O)C(=O)C=C(NCCCCCC)C1=O [Compound 19]", "y"),
    ("CCCCCCCCCCCCCC1=C(OC)C(=O)C(C)=C(NCCCC(=O)OCCCCCC)C1=O [Compound 49]", "y"),
    ("CCCCCCCCCCCCCC1=C(O)C(=O)C=C(NCCCC(=O)OCc2ccccc2)C1=O [Compound 11]", "y"),
]

Say whether its viability at 5 µM is strictly beneath 90%. Entry: CCCCCCCCCCCCCC1=C(OC)C(=O)C=C(NCCCC(=O)OCCCC)C1=O [Compound 15]
y

Say whether its viability at 5 µM is strictly beneath 90%. Entry: CCCCCCCCCCCCCC1=C(OC)C(=O)C(C)=C(NCCCC(=O)OCCCC)C1=O [Compound 46]
n

Say whether its viability at 5 µM is strictly beneath 90%. Entry: CCCCCCCCCCCCCC1=C(OC)C(=O)C=C(NCCCC(=O)O)C1=O [Compound 9]
y

Say whether its viability at 5 µM is strictly beneath 90%. Entry: CCCCCCCCCCCCCC1=C(OC)C(=O)C=C(NCCCC(=O)OCc2ccccc2)C1=O [Compound 12]
y

Say whether its viability at 5 µM is strictly beneath 90%. Entry: CCCCCCCCCCCCCC1=C(O)C(=O)C=C(NCCCC(=O)OCCCC)C1=O [Compound 14]
y

Say whether its viability at 5 µM is strictly beneath 90%. Entry: CCCCCCCCCCCCCC1=C(OC)C(=O)C=C(NCCCC(=O)OC(C)(C)C)C1=O [Compound 7]
n

Say whether its viability at 5 µM is strictly beneath 90%. Entry: CCCCCCCCCCCCCC1=C(O)C(=O)C=C(NCCCC(=O)O)C1=O [Compound 8]
y

Say whether its viability at 5 µM is strictly beneath 90%. Entry: CCCCCCCCCCCCCC1=C(OC)C(=O)C=C(NCCCCCC)C1=O [Compound 20]
y

Say whether its viability at 5 µM is strictly beneath 90%. Entry: CCCCCCCCCCCCCC1=C(O)C(=O)C=C(NCCCC(=O)OCCCCCC)C1=O [Compound 17]
y

Say whether its viability at 5 µM is strictly beneath 90%. Entry: CCCCCCCCCCCCCC1=C(O)C(=O)C=C(NCCCC(=O)OC(C)(C)C)C1=O [Compound 6]
y

###

inhibition at 10 µM reference
- Tested on: FRDA lymphocytes
- Test Summary: Suppression of lipid peroxidation (C11-BODIPY581/591, FACS) in FRDA lymphocytes treated with diethyl maleate
- Type: cell-based
- Experimental Parameters: Lymphocyte, 10 μM, DEM, read-out: Scavenging activity (%), suppression of lipid peroxidation
Give your result in % as a bare value.

Look up inhibition at 10 µM with FRDA lymphocytes for this molecule: `CCCCCCCCCCCCCC1=C(OC)C(=O)C(C)=C(NCCCC(=O)OC(C)(C)C)C1=O`
75

Look up inhibition at 10 µM with FRDA lymphocytes for this molecule: `CCCCCCCCCCCCCC1=C(OC)C(=O)C=C(NCCCCCC)C1=O`
70

Look up inhibition at 10 µM with FRDA lymphocytes for this molecule: `CCCCCCCCCCCCCC1=C(OC)C(=O)C=C(NCCCC(=O)OCCCCCC)C1=O`
98

Look up inhibition at 10 µM with FRDA lymphocytes for this molecule: `CCCCCCCCCCCCCC1=C(OC)C(=O)C=C(N(C)CCCC(=O)OC(C)(C)C)C1=O`
100

Look up inhibition at 10 µM with FRDA lymphocytes for this molecule: `CCCCCCCCCCCCCC1=C(O)C(=O)C=C(NCCCC(=O)O)C1=O`
24

Look up inhibition at 10 µM with FRDA lymphocytes for this molecule: `CCCCCCCCCCCCCC1=C(O)C(=O)C=C(NCCCCCC)C1=O`
38

###

- Tested on: NADH oxidase (complexes I, III and IV)
- Test Summary: NADH oxidase activity (complexes I, III and IV) in submitochondrial particles
- Type: biochemical, bovine
- Experimental Parameters: 10 μM
NADH oxidase activity (Complex I, III, IV) % reference
Give the number first and the unit second.

Find the recorded NADH oxidase activity (Complex I, III, IV) % belonging to CCCCCCCCCCCCCC1=C(OC)C(=O)C(C)=C(NCCCC(=O)OCCCC)C1=O [Compound 46] and report it.
68 ± 1%

Find the recorded NADH oxidase activity (Complex I, III, IV) % belonging to CCCCCCCCCCCCCC1=C(OC)C(=O)C(C)=C(NCCCC(=O)OC(C)(C)C)C1=O [Compound 43] and report it.
80 ± 1%

Find the recorded NADH oxidase activity (Complex I, III, IV) % belonging to CCCCCCCCCCCCCC1=C(O)C(=O)C=C(N(C)CCCC(=O)OCCCCCC)C1=O [Compound 23] and report it.
18 ± 0.5%

Find the recorded NADH oxidase activity (Complex I, III, IV) % belonging to CCCCCCCCCCCCCC1=C(NCCCC(=O)OCCCCCC)C(=O)C(C)=C(NCCCC(=O)OCCCCCC)C1=O [Compound 50] and report it.
70 ± 3%

Find the recorded NADH oxidase activity (Complex I, III, IV) % belonging to COC1=C2CCCCCCCCCCCCCCCNC(=CC1=O)C2=O [Compound 40] and report it.
70 ± 1%

Find the recorded NADH oxidase activity (Complex I, III, IV) % belonging to CCCCCCCCCCCCCC1=C(NCCCC(=O)OC(C)(C)C)C(=O)C(C)=C(NCCCC(=O)OC(C)(C)C)C1=O [Compound 44] and report it.
84 ± 3%

Find the recorded NADH oxidase activity (Complex I, III, IV) % belonging to CCCCCCCCCCCCCC1=C(O)C(=O)C=C(N(C)C)C1=O [Compound 25] and report it.
5.0 ± 0.1%

Find the recorded NADH oxidase activity (Complex I, III, IV) % belonging to CCCCCCCCCCCCCC1=C(OC)C(=O)C=C(N(C)C)C1=O [Compound 26] and report it.
15 ± 0.4%

Find the recorded NADH oxidase activity (Complex I, III, IV) % belonging to CCCCCCCCCCCCCC1=C(OC)C(=O)C(C)=C(NCCCC(=O)OCCCCCC)C1=O [Compound 49] and report it.
74 ± 2%

Find the recorded NADH oxidase activity (Complex I, III, IV) % belonging to CCCCCCCCCCCCCC1=C(NCCCC(=O)OCCCC)C(=O)C(C)=C(NCCCC(=O)OCCCC)C1=O [Compound 47] and report it.
69 ± 2%

Find the recorded NADH oxidase activity (Complex I, III, IV) % belonging to CCCCCCCCCCCCCC1=C(OC)C(=O)C=C(N(C)CCCC(=O)OCCCCCC)C1=O [Compound 24] and report it.
17 ± 0.4%

###

inhibition at 5 µM reference
- Tested on: CEM leukemia cells
- Test Summary: Suppression of ROS production (DCFH-DA flow cytometry) in DEM-treated CEM leukemia cells
- Format: cell-based
- Experimental Parameters: CEM leukemia cells pretreated with DEM, read-out: Scavenging activity (%), suppression of ROS production

Please review the entries below; each comes with its answer.
# Compound, inhibition at 5 µM
rows = [
    ("CCCCCCCCCCCCCC1=C(OC)C(=O)C(C)=C(NCCCC(=O)OCCCCCC)C1=O [Compound 49]", "16%"),
    ("CCCCCCCCCCCCCC1=C(OC)C(=O)C(C)=C(NCCCC(=O)OCCCC)C1=O [Compound 46]", "50%"),
    ("CCCCCCCCCCCCCC1=C(NCCCC(=O)OCCCCCC)C(=O)C(C)=C(NCCCC(=O)OCCCCCC)C1=O [Compound 50]", "14%"),
]

Find the recorded inhibition at 5 µM belonging to CCCCCCCCCCCCCC1=C(OC)C(=O)C(C)=C(NCCCC(=O)OC(C)(C)C)C1=O [Compound 43] and report it.
35%

###

- Assayed System: bovine heart mitochondrial complex I (Bos taurus, UniProt P03887+P17694+P42026)
- Sequence (P25708 21-464): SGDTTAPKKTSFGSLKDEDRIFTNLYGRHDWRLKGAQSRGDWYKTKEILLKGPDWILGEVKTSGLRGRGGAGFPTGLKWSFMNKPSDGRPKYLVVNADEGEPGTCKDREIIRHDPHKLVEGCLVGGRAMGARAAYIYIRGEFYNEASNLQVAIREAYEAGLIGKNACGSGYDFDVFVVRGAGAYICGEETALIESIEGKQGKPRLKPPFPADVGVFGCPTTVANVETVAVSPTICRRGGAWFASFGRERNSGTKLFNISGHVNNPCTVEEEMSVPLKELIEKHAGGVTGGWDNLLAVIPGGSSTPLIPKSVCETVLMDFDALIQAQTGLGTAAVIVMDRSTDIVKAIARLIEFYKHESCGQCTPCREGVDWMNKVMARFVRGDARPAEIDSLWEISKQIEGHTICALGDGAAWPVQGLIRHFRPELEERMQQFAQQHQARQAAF
- Sequence (P42026 38-216): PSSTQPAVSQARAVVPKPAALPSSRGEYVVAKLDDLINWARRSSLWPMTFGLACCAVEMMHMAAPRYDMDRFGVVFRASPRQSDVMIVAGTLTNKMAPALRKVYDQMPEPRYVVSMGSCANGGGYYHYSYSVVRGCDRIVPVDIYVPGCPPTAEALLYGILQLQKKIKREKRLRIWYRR
- Sequence (P17694 34-463): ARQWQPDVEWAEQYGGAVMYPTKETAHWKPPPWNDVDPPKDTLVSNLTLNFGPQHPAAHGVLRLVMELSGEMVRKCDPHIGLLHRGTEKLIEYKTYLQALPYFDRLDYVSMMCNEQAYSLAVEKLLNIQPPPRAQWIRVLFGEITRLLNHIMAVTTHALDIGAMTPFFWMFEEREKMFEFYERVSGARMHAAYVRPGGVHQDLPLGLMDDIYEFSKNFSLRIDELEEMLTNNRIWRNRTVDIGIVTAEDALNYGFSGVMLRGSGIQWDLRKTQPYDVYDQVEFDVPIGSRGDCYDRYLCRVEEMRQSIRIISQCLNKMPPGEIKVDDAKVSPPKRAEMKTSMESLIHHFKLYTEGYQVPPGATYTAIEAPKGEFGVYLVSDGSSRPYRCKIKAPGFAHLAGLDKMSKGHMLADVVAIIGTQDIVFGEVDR
- Sequence (P15690 24-727, further chain): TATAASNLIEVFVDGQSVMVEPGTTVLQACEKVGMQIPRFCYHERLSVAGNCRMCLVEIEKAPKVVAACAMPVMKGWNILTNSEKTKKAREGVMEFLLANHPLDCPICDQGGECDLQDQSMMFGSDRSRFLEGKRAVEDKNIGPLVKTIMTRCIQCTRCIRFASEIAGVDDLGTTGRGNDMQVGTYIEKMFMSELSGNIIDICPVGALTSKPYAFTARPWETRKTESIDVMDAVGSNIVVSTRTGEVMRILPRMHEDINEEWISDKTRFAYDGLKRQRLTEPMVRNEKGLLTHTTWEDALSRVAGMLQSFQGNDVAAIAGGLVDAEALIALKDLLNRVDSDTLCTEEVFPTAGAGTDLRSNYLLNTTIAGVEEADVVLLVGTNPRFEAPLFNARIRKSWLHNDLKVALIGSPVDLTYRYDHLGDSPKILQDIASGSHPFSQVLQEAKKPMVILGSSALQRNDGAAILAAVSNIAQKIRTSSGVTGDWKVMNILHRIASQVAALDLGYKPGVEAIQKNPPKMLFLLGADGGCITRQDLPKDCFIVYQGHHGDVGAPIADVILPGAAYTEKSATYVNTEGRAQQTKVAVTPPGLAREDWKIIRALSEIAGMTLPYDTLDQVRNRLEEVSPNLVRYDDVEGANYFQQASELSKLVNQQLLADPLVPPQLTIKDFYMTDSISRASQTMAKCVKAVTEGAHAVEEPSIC
- Sequence (P03887 whole entry): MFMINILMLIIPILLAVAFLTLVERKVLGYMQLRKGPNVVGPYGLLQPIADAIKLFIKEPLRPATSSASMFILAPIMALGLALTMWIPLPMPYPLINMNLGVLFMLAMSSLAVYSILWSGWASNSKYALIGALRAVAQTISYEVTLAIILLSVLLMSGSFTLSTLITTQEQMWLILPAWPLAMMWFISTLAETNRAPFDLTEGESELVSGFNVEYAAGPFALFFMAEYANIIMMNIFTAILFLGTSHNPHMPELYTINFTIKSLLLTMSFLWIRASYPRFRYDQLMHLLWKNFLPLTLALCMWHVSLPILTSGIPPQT
- Sequence (P42028 37-212, further chain): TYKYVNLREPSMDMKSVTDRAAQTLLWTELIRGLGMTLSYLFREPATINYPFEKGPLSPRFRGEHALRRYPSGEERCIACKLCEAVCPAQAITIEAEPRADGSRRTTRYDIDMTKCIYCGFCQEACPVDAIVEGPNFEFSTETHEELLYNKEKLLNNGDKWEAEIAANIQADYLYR
- Test Summary: Complex I (NADH-Q1 oxidoreductase) inhibition in submitochondrial particles
- Format: biochemical
- Experimental Parameters: submitochondrial particles, 30° C.; read-out: Complex I inhibition Imax
Emax reference
Give your result in % as a bare value.

# Structure String, Assayed System, Emax [%]
records = [
    ("CCCCCCCCCCCCCC1=C(OC)C(=O)C=C(N(C)CCCC(=O)OCCCCCC)C1=O", "bovine heart mitochondrial complex I (Bos taurus, UniProt P03887+P17694+P42026)", 90),
    ("CCCCCCCCCCCCCC1=C(O)C(=O)C=C(NCCCC(=O)OC(C)(C)C)C1=O", "bovine heart mitochondrial complex I (Bos taurus, UniProt P03887+P17694+P42026)", 64),
    ("CCCCCCCCCCCCCC1=C(O)C(=O)C=C(NCCCC(=O)O)C1=O", "bovine heart mitochondrial complex I (Bos taurus, UniProt P03887+P17694+P42026)", 84),
]

# ---- query molecule ----
Find the recorded Emax belonging to `CCCCCCCCCCCCCC1=C(OC)C(=O)C=C(N(C)C)C1=O` and report it.
90
